# Test system: Escherichia coli TOP10
# Measurement Notes: shrunken log2 fold change of peptide-encoding DNA abundance (4.5 h post-induction vs induction); higher = less antimicrobial activity (less host growth inhibition)
# Experimental Context: time post-induction: 4.5 h; library: site-saturation at positions 5, 18, 19, 20
Below, each of the sequences is paired with its reported shrunken log2 fold change value.

Query Sequence | shrunken log2 fold change
RRIRWRPPRLPRPRPRPHLKPRP | -0.0706
RRIRKRPPRLPRPRPRPVRMPRP | 0.0401
RRIRPRPPRLPRPRPRPKYMPRP | 1.72
RRIRYRPPRLPRPRPRPFPKPRP | -0.28
RRIRCRPPRLPRPRPRPAAVPRP | 0.346
RRIRTRPPRLPRPRPRPMVAPRP | 0.0166
RRIRLRPPRLPRPRPRPIYNPRP | -0.989
RRIRGRPPRLPRPRPRPSKMPRP | 0.0491
RRIRPRPPRLPRPRPRPPYCPRP | -0.12
RRIRSRPPRLPRPRPRPKFMPRP | -0.0581
RRIRRRPPRLPRPRPRPGIDPRP | -0.0704
RRIRARPPRLPRPRPRPYDPPRP | -0.406
RRIRVRPPRLPRPRPRPCYYPRP | -0.147
RRIRARPPRLPRPRPRPLQMPRP | 0.629
RRIRKRPPRLPRPRPRPQMIPRP | -0.14
RRIRDRPPRLPRPRPRPMWPPRP | 0.316
RRIRHRPPRLPRPRPRPPCHPRP | -0.253
RRIRVRPPRLPRPRPRPHRTPRP | -0.16
RRIRERPPRLPRPRPRPAANPRP | 0.0774
RRIRNRPPRLPRPRPRPPVMPRP | 0.139
RRIRDRPPRLPRPRPRPFGMPRP | -0.0413
RRIRYRPPRLPRPRPRPMPSPRP | 0.0101
RRIRVRPPRLPRPRPRPPFTPRP | 0.955
RRIRARPPRLPRPRPRPECHPRP | 1.38
RRIRYRPPRLPRPRPRPTEQPRP | -0.0161
RRIRARPPRLPRPRPRPDMKPRP | -0.0184
RRIRARPPRLPRPRPRPLIAPRP | 0.504
RRIRARPPRLPRPRPRPCYNPRP | -0.456
RRIRLRPPRLPRPRPRPSENPRP | 0.124
RRIRYRPPRLPRPRPRPMGSPRP | -0.106
RRIRHRPPRLPRPRPRPCPMPRP | -0.0207
RRIRDRPPRLPRPRPRPHPSPRP | 0.0703

* * *

Reported shrunken log2 fold change values are given for each entry in this list.
# System: Escherichia coli TOP10
# Measurement Notes: shrunken log2 fold change of peptide-encoding DNA abundance (4.5 h post-induction vs induction); higher = less antimicrobial activity (less host growth inhibition)
# Experimental Context: time post-induction: 4.5 h; library: site-saturation at positions 5, 18, 19, 20
Measurement Type: shrunken log2 fold change

Query Sequence | Reported Measurement
RRIRTRPPRLPRPRPRPCMFPRP | -0.515
RRIRHRPPRLPRPRPRPNMKPRP | -0.855
RRIRIRPPRLPRPRPRPELKPRP | 0.224
RRIRNRPPRLPRPRPRPHNQPRP | -0.7
RRIRPRPPRLPRPRPRPMKIPRP | 0.0483
RRIRDRPPRLPRPRPRPQPVPRP | 0.28
RRIRYRPPRLPRPRPRPLPWPRP | -0.132
RRIRGRPPRLPRPRPRPDYAPRP | -0.0775

* * *

# Test system: Escherichia coli TOP10
# Measurement Notes: shrunken log2 fold change of peptide-encoding DNA abundance (4.5 h post-induction vs induction); higher = less antimicrobial activity (less host growth inhibition)
# Experimental Context: time post-induction: 4.5 h; library: site-saturation at positions 5, 18, 19, 20
Cut-off 0.05 on shrunken log2 fold change, inclusive. At or above means Fulfilled; below means Not fulfilled.

Query Sequence | Cat
RRIRVRPPRLPRPRPRPRPLPRP | Fulfilled
RRIRERPPRLPRPRPRPGNCPRP | Fulfilled
RRIRNRPPRLPRPRPRPDLRPRP | Not fulfilled
RRIRKRPPRLPRPRPRPLEFPRP | Fulfilled
RRIRSRPPRLPRPRPRPPPEPRP | Fulfilled
RRIRLRPPRLPRPRPRPQTNPRP | Not fulfilled
RRIRRRPPRLPRPRPRPSWPPRP | Fulfilled
RRIRIRPPRLPRPRPRPEMMPRP | Fulfilled
RRIRQRPPRLPRPRPRPCLTPRP | Not fulfilled
RRIRVRPPRLPRPRPRPCRKPRP | Fulfilled
RRIRLRPPRLPRPRPRPSAHPRP | Not fulfilled
RRIRVRPPRLPRPRPRPATLPRP | Not fulfilled
RRIRIRPPRLPRPRPRPMNTPRP | Not fulfilled
RRIRARPPRLPRPRPRPPSMPRP | Fulfilled
RRIRKRPPRLPRPRPRPEWCPRP | Fulfilled

* * *

# Tested on: Escherichia coli TOP10
# Measurement Notes: shrunken log2 fold change of peptide-encoding DNA abundance (4.5 h post-induction vs induction); higher = less antimicrobial activity (less host growth inhibition)
# Experimental Context: time post-induction: 4.5 h; library: site-saturation at positions 5, 18, 19, 20

Query Sequence | Target Of Assay | shrunken log2 fold change
RRIRVRPPRLPRPRPRPWYTPRP | Escherichia coli TOP10 | -0.507
RRIRQRPPRLPRPRPRPWRWPRP | Escherichia coli TOP10 | -0.0392
RRIRWRPPRLPRPRPRPDVTPRP | Escherichia coli TOP10 | 0.0084
RRIRIRPPRLPRPRPRPYNQPRP | Escherichia coli TOP10 | -1.01
RRIRYRPPRLPRPRPRPSWGPRP | Escherichia coli TOP10 | -0.154
RRIRGRPPRLPRPRPRPKMTPRP | Escherichia coli TOP10 | 1.83
RRIRIRPPRLPRPRPRPRYLPRP | Escherichia coli TOP10 | 0.0743
RRIRWRPPRLPRPRPRPNMWPRP | Escherichia coli TOP10 | 0.0493
RRIRKRPPRLPRPRPRPIAEPRP | Escherichia coli TOP10 | 0.0504
RRIRSRPPRLPRPRPRPGLVPRP | Escherichia coli TOP10 | 0.275
RRIRDRPPRLPRPRPRPWSLPRP | Escherichia coli TOP10 | 0.0709
RRIRERPPRLPRPRPRPAHFPRP | Escherichia coli TOP10 | 0.0793
RRIRHRPPRLPRPRPRPYMYPRP | Escherichia coli TOP10 | -1.14
RRIRDRPPRLPRPRPRPFITPRP | Escherichia coli TOP10 | -0.118
RRIRCRPPRLPRPRPRPWTCPRP | Escherichia coli TOP10 | -0.323

* * *

# System: Escherichia coli TOP10;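 note: peptides expressed intracellularly from a pBAD plasmid library in pooled LB shake-flask culture, induced with 0.3% L-arabinose, DNA abundance read by NGS, three biological replicates, DESeq2 with apeglm shrinkage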
# Measurement Notes: shrunken log2 fold change of peptide-encoding DNA abundance (4.5 h post-induction vs induction); higher = less antimicrobial activity (less host growth inhibition)
# Experimental Context: time post-induction: 4.5 h; library: site-saturation at positions 5, 18, 19, 20

Query Sequence | shrunken log2 fold change
RRIRARPPRLPRPRPRPEEMPRP | 1.73
RRIRWRPPRLPRPRPRPHDCPRP | -0.00141
RRIRDRPPRLPRPRPRPMQKPRP | 0.0229
RRIRPRPPRLPRPRPRPICRPRP | -0.276
RRIRGRPPRLPRPRPRPMRVPRP | 1.65
RRIRWRPPRLPRPRPRPHVQPRP | -0.209
RRIRDRPPRLPRPRPRPHPYPRP | 0.0304
RRIRTRPPRLPRPRPRPCYFPRP | -0.616
RRIRRRPPRLPRPRPRPNKYPRP | 0.861
RRIRKRPPRLPRPRPRPHYFPRP | -0.268
RRIRVRPPRLPRPRPRPCKVPRP | 0.00272
RRIRVRPPRLPRPRPRPLGVPRP | -0.116
RRIRWRPPRLPRPRPRPDRIPRP | 0.082
RRIRPRPPRLPRPRPRPEGVPRP | 0.103
RRIRWRPPRLPRPRPRPMTTPRP | 0.1
RRIRWRPPRLPRPRPRPCPCPRP | -0.273
RRIRQRPPRLPRPRPRPWLYPRP | -0.0636
RRIRNRPPRLPRPRPRPEWWPRP | 0.315
RRIRTRPPRLPRPRPRPCFVPRP | -0.454
RRIRLRPPRLPRPRPRPFNNPRP | -0.426
RRIRVRPPRLPRPRPRPPQHPRP | 0.186
RRIRKRPPRLPRPRPRPPCNPRP | 0.189
RRIRERPPRLPRPRPRPTMAPRP | 0.00526
RRIRARPPRLPRPRPRPVTIPRP | -0.207
RRIRNRPPRLPRPRPRPRNKPRP | -0.107
RRIRCRPPRLPRPRPRPSEQPRP | -0.0681
RRIRCRPPRLPRPRPRPVRSPRP | 0.549
RRIRPRPPRLPRPRPRPEKVPRP | -0.127
RRIRKRPPRLPRPRPRPYLNPRP | -0.362
RRIRMRPPRLPRPRPRPLLFPRP | 0.908
RRIRKRPPRLPRPRPRPSGRPRP | 0.288
RRIRTRPPRLPRPRPRPKDKPRP | -0.341
RRIRDRPPRLPRPRPRPSWVPRP | -0.211
RRIRYRPPRLPRPRPRPQRCPRP | -0.0766
RRIRSRPPRLPRPRPRPPGWPRP | 0.193
RRIRKRPPRLPRPRPRPSLEPRP | 0.286
RRIRFRPPRLPRPRPRPGTTPRP | -0.032
RRIRQRPPRLPRPRPRPKFGPRP | 0.102
RRIRDRPPRLPRPRPRPLVRPRP | 0.223
RRIRCRPPRLPRPRPRPKPYPRP | 0.179
RRIRLRPPRLPRPRPRPDLWPRP | 0.774
RRIRGRPPRLPRPRPRPAAEPRP | 2.52
RRIRVRPPRLPRPRPRPHFVPRP | -0.0262
RRIRMRPPRLPRPRPRPDMEPRP | 0.00931
RRIRQRPPRLPRPRPRPILYPRP | 0.0724
RRIRDRPPRLPRPRPRPDLAPRP | 0.814
RRIRDRPPRLPRPRPRPKCTPRP | 0.0239
RRIRCRPPRLPRPRPRPKFNPRP | -0.477
RRIRIRPPRLPRPRPRPIIGPRP | -0.13
RRIRVRPPRLPRPRPRPRCQPRP | 0.0744
RRIRMRPPRLPRPRPRPEDYPRP | 1.06
RRIRERPPRLPRPRPRPTPQPRP | 0.246
RRIRRRPPRLPRPRPRPCYLPRP | -0.499
RRIRDRPPRLPRPRPRPDHPPRP | -0.76
RRIRARPPRLPRPRPRPWMVPRP | 0.0197
RRIRHRPPRLPRPRPRPMIVPRP | 0.0837
RRIRTRPPRLPRPRPRPTKDPRP | -0.244
RRIRKRPPRLPRPRPRPLNQPRP | -0.128
RRIRPRPPRLPRPRPRPDWCPRP | -0.179
RRIRFRPPRLPRPRPRPWMQPRP | -0.139
RRIRDRPPRLPRPRPRPEHPPRP | 0.054
RRIRQRPPRLPRPRPRPAKAPRP | -0.101
RRIRHRPPRLPRPRPRPCCLPRP | -0.82
